Sourced from patent US20230310435A1

Tested on: LPS-induced TNF-α release, NR8383 cells
Experiment: LPS-induced TNF-α production in NR8383 rat macrophages (ELISA)
Assay type: cell-based
Conditions: Rattus norvegicus, Macrophage; NR8383 cells, ELISA; 45 min pretreatment, 8-hour LPS; read-out: IC50, inhibition of LPS-induced TNF-α release
readout: pIC50
The quantity pIC50 is defined as the negative base-10 logarithm of the molar concentration.

GET /value?item= "N=C(N)NCCCCC(=O)Nc1cc(C(F)(F)F)cc(NC(=O)c2cc(C(=O)Nc3cc(C(F)(F)F)cc(NC(=O)CCCCNC(=N)N)c3O[C@@H]3CCNC3)ncn2)c1O[C@@H]1CCNC1" &field=pIC50 returns 6.35
